TGT: T1, pig-type ligand peptide (1-60) (SEQ ID NO: 31) (Sus scrofa, UniProt Q9TT95)
T1 construct: made in house
T1 sequence (Q9TT95 23-82): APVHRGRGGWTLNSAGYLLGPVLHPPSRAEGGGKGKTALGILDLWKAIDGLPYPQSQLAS
PROTOCOL_DETAILS: Competitive EIA of monoclonal antibodies against pig-type ligand peptide
Type: binding
RECORDED_CONDITIONS: B/B0 in the presence of 100 nM immunogen; HRP-labeled SEQ ID NO: 44
ENDPOINT_NAME: Reactivity Pig Ligand (SEQ ID NO: 31)

[[record]]
molecule = "4 (protein, Rat) MELAPVNLSEGNGSDPEPPAEPRPLFGIGVENFITLVVFGLIFAMGVLGNSLVITVLARSKPGKPRSTTNLFILNLSIADLAYLLFCIPFQATVYALPTWVLGAFICKFIHYFFTVSMLVSIFTLAAMSVDRYVAIVHSRRSSSLRVSRNALLGVGFIWALSIAMASPVAYYQRLFHRDSNQTFCWEHWPNQLHKKAYVVCTFVFGYLLPLLLICFCYAKVLNHLHKKLKNMSKKSEASKKKTAQTVLVVVVVFGISWLPHHVIHLWAEFGAFPLTPASFFFRITAHCLAYSNSSVNPIIYAFLSENFRKAYKQVFKCRVCNESPHGDAKEKNRIDTPPSTNCTHV"
assay_result = "+ ((B/B0) < 0.50)"

[[record]]
molecule = "6 (protein, Rat) MADIQNISLDSPGSVGAVAVPVIFALIFLLGMVGNGLVLAVLLQPGPSAWQEPSSTTDLFILNLAVADLCFILCCVPFQAAIYTLDAWLFGAFVCKTVHLLIYLTMYASSFTLAAVSLDRYLAVRHPLRSRALRTPRNARAAVGLVWLLAALFSAPYLSYYGTVRYGALELCVPAWEDARRRALDVATFAAGYLLPVAVVSLAYGRTLCFLWAAVGPAGAAAAEARRRATGRAGRAMLAVAALYALCWGPHHALILCFWYGRFAFSPATYACRLASHCLAYANSCLNPLVYSLASRHFRARFRRLWPCGRRRHRHHHRAHRALRRVQPASSGPAGYPGDARPRGWSMEPRGDALRGGGETRLTLSPRGPQ"
assay_result = "+ ((B/B0) < 0.50)"

